- assay-comment: Pharmacokinetics in Yucatan mini-pigs, single subcutaneous or intravenous dose
- Format: in vivo
- measurement-conditions: minipig, plasma; single intravenous dose 18 nmol/kg, male Yucatan pigs, mean; read-out: AUC0-inf
*1 amine or outer side, *2 acyl side, *3 side chain or, on linkers, in order; H or OH if unused. Side-chain parts run from the residue outwards. [ ]: non-standard residue; d: D form. The star is where a group is joined. C20 diacid = O=C(O)CCCCCCCCCCCCCCCCCCC(=O)*; γGlu = O=C(O)[C@H](CCC(=O)[*:2])N[*:1]; εLys = N[C@@H](CCCCN[*:1])C(=O)[*:2]; pGlu = O=C1CC[C@@H](C(=O)O)N1; αMeL = CC(C)C[C@](C)(N)C(=O)O; AEEA = NCCOCCOCC(=O)O; Aib = CC(C)(N)C(=O)O
metric: AUC0-inf
Field: value (include unit after the number)

The substance listed as [pGlu]GSPSGIVTS[αMeL]DVPT[Aib][αMeL]LQKILEQERAEKARQQAK([γGlu-AEEA-εLys-C20 diacid])EAAEILAQV-NH2 [SEQ ID NO: 22] shows AUC0-inf equal to 25.3 µM·h

====

- assay-comment: Pharmacokinetics in Cynomolgus monkeys, single subcutaneous or intravenous dose
- Format: in vivo
- measurement-conditions: both sexes, cynomolgus monkey, plasma, sc, 183 nmol/kg, single subcutaneous dose 183 nmol/kg, Mean, read-out: Tmax
*1 amine or outer side, *2 acyl side, *3 side chain or, on linkers, in order; H or OH if unused. Side-chain parts run from the residue outwards. [ ]: non-standard residue; d: D form. The star is where a group is joined. C20 diacid = O=C(O)CCCCCCCCCCCCCCCCCCC(=O)*; γGlu = O=C(O)[C@H](CCC(=O)[*:2])N[*:1]; εLys = N[C@@H](CCCCN[*:1])C(=O)[*:2]; pGlu = O=C1CC[C@@H](C(=O)O)N1; αMeL = CC(C)C[C@](C)(N)C(=O)O; AEEA = NCCOCCOCC(=O)O; Aib = CC(C)(N)C(=O)O
metric: Tmax (h)
One number for each entry, in h.

The substance listed as [pGlu]GSPSGIVTS[αMeL]DVPT[Aib][αMeL]LQKILEQERAEKARQQAK([γGlu-AEEA-εLys-C20 diacid])EAAEILAQV-NH2 [SEQ ID NO: 22] shows Tmax equal to 60

====

- assay-comment: Pharmacokinetics in Yucatan mini-pigs, single subcutaneous or intravenous dose
- Format: in vivo
- measurement-conditions: minipig, plasma; single intravenous dose 18 nmol/kg, male Yucatan pigs, mean; read-out: C0
*1 amine or outer side, *2 acyl side, *3 side chain or, on linkers, in order; H or OH if unused. Side-chain parts run from the residue outwards. [ ]: non-standard residue; d: D form. The star is where a group is joined. C20 diacid = O=C(O)CCCCCCCCCCCCCCCCCCC(=O)*; γGlu = O=C(O)[C@H](CCC(=O)[*:2])N[*:1]; εLys = N[C@@H](CCCCN[*:1])C(=O)[*:2]; pGlu = O=C1CC[C@@H](C(=O)O)N1; αMeL = CC(C)C[C@](C)(N)C(=O)O; AEEA = NCCOCCOCC(=O)O; Aib = CC(C)(N)C(=O)O
metric: C0 (nM)
Give bare numbers, in nM.

The substance listed as [pGlu]GSPSGIVTS[αMeL]DVPT[Aib][αMeL]LQKILEQERAEKARQQAK([γGlu-AEEA-εLys-C20 diacid])EAAEILAQV-NH2 [SEQ ID NO: 22] shows C0 equal to 418
